Cited source for all entries: patent US20080176889A1

# System: HCT-116
# assayNotes: SRB cytotoxicity assay, solid tumor cells HCT-116
# Assay type: cell-based
# conditionLabel: Homo sapiens, HCT-116, 72 h, read-out: IC50 HCT-116
pIC50: −log10 of the molar value.

| smilesRecord | assayedSystem | pIC50 |
| --- | --- | --- |
| OCc1cc(Nc2c3ccccc3nc3ccccc23)cc(OCCN(CCCl)CCCl)c1 | HCT-116 | 8.26 |

* * *

# Tested on: CCRF-CEM/Taxol
# assayNotes: XTT cytotoxicity assay, taxol-resistant subline
# Assay type: cell-based, human
# conditionLabel: Homo sapiens, CCRF-CEM, 72 h, read-out: IC50 CCRF-CEM/Taxol
observationType: IC50

| smilesRecord | observationType | valueMeasured |
| --- | --- | --- |
| OCc1cc(Nc2c3ccccc3nc3ccccc23)cc(OCCN(CCCl)CCCl)c1 | IC50 | 34 nM |
